// provenance: the C3SDB collision cross section collection

Run conditions: [M+Na]+; instrument: DT; stepped-field
Reported collision cross section (N2) values are given for each entry in this list.

>  <Compound>
CCCCCCCCCCCCC=CC[C@@H](O)[C@H](CO[C@@H]1O[C@H](CO)[C@@H](O)C(O)C1O)NC(=O)CCCCCCCCCCCCCCCCCCC (some centres not stated)

>  <collision cross section (N2) / Å²>
293.8

$$$$
>  <Compound>
CC/C=C\C/C=C\C/C=C\C/C=C\CCCCC(=O)OC[C@H](COP(=O)(O)OCCN)OC(=O)CCCCC/C=C\C/C=C\C/C=C\C/C=C\CCCCC

>  <collision cross section (N2) / Å²>
289.2

$$$$
>  <Compound>
CCCCCCCCCCCCC=CC[C@@H](O)[C@H](CO[C@@H]1O[C@H](CO)[C@@H](O)C(O)C1O)NC(=O)CCCCCCCCCCCCCCCCCCCCCC (some centres not stated)

>  <collision cross section (N2) / Å²>
302.5

$$$$
>  <Compound>
CC/C=C\C/C=C\C/C=C\C/C=C\C/C=C\CCCC(=O)O[C@H](COC(=O)CCCCCCCCC/C=C\C/C=C\CCCCC)COP(=O)(O)OCCN

>  <collision cross section (N2) / Å²>
290.8

$$$$
>  <Compound>
CCCCCCCCCCCCC=CC[C@@H](O)[C@H](COP(=O)([O-])OCC[N+](C)(C)C)NC(=O)CCCCCCCCCCCCCCCCCCC

>  <collision cross section (N2) / Å²>
298.5

$$$$
>  <Compound>
CCCCCCCCCCCCC=CC[C@@H](O)[C@H](CO[C@@H]1O[C@H](CO)[C@@H](O)C(O)C1O)NC(=O)CC=CCCCCCCCCCCCCCCCCCCCCC (some centres not stated)

>  <collision cross section (N2) / Å²>
307.8

$$$$
>  <Compound>
CCCCC/C=C\C/C=C\C/C=C\C/C=C\CCCC(=O)O[C@H](COC(=O)CCCCCCCCCCCCCCC)COP(=O)(O)OC[C@H](N)C(=O)O

>  <collision cross section (N2) / Å²>
287.8

$$$$
>  <Compound>
CCCCCCCCCCCCC=CC[C@@H](O)[C@H](COP(=O)([O-])OCC[N+](C)(C)C)NC(=O)CCCCCCCCCCCCCCCC

>  <collision cross section (N2) / Å²>
289.1

$$$$
>  <Compound>
CCCCCCCCCCCCC=CC[C@@H](O)[C@H](COP(=O)([O-])OCC[N+](C)(C)C)NC(=O)CCCCCCCCCCCCCCCCCCCCCC

>  <collision cross section (N2) / Å²>
306.3

$$$$
>  <Compound>
CCCCCCCCCCCCC=CC[C@@H](O)[C@H](CO[C@@H]1O[C@H](CO)[C@@H](O)C(O)C1O)NC(=O)CC=CCCCCCCCCCCCCCCCCCC (some centres not stated)

>  <collision cross section (N2) / Å²>
297.1

$$$$
>  <Compound>
OC[C@@H](O)[C@@H](O)[C@H](O)[C@H](O)CO

>  <collision cross section (N2) / Å²>
140.6

$$$$
>  <Compound>
CC/C=C\C/C=C\C/C=C\C/C=C\C/C=C\C/C=C\CCC(=O)OC[C@H](COP(=O)(O)OC[C@H](N)C(=O)O)OC(=O)CCCCCCC/C=C\CCCCCCCCC

>  <collision cross section (N2) / Å²>
299.2

$$$$

###

Run conditions: [M-H]-; instrument: DT; stepped-field

>  <Molecule>
CCCCCCCCCCCCCCCCCCCC(=O)OC[C@H](COP(=O)(O)OC[C@@H](O)CO)OC(=O)CCCCCCCCCCCCC

>  <Measure unit>
Å²

>  <collision cross section (N2)>
277.6

$$$$
>  <Molecule>
CCCCC/C=C\C/C=C\CCCCCCCCCCCC(=O)O[C@H](COC(=O)CCCCCCC/C=C\C/C=C\CCCCC)COP(=O)(O)OC[C@H](N)C(=O)O

>  <Measure unit>
Å²

>  <collision cross section (N2)>
297.6

$$$$
>  <Molecule>
CCCCCCCCCCCCCCCCCC(=O)OC[C@@H](O)COP(=O)(O)O[C@H]1C(O)C(O)C(O)[C@@H](O)C1O (some centres not stated)

>  <Measure unit>
Å²

>  <collision cross section (N2)>
236.1

$$$$
>  <Molecule>
CCCCCCCC/C=C\CCCCCCCCCC(=O)O[C@H](COC(=O)CCCCCCCCCCC)COP(=O)(O)OC[C@@H](O)CO [PG(16:0/16:1)]

>  <Measure unit>
Å²

>  <collision cross section (N2)>
268.7

$$$$
>  <Molecule>
CCCCCCCC/C=C\CCCCCCCCCC(=O)O[C@H](COC(=O)CCCCCCCCCCCC)COP(=O)(O)OCCN

>  <Measure unit>
Å²

>  <collision cross section (N2)>
266.7

$$$$
>  <Molecule>
CCCCCCCCCCCCCCCC(=O)OC[C@H](COP(=O)(O)O[C@H]1C(O)C(O)C(O)[C@@H](O)C1O)OC(=O)CCCCCCCCCCCCC (some centres not stated)

>  <Measure unit>
Å²

>  <collision cross section (N2)>
280.1

$$$$
>  <Molecule>
CCCCCCC/C=C\CCCCCCCC(=O)OC[C@@H](O)COP(=O)(O)OC[C@@H](O)CO

>  <Measure unit>
Å²

>  <collision cross section (N2)>
213.5

$$$$
>  <Molecule>
CCCCC/C=C\C/C=C\C/C=C\CCCCC(=O)O[C@H](COCCCCCCCCCCCCCCCC)COP(=O)(O)OCCN

>  <Measure unit>
Å²

>  <collision cross section (N2)>
266.5

$$$$
>  <Molecule>
CCCCCC/C=C\CCCCCCCC(=O)OC[C@@H](O)COP(=O)(O)O[C@H]1C(O)C(O)C(O)[C@@H](O)C1O (some centres not stated)

>  <Measure unit>
Å²

>  <collision cross section (N2)>
226.1

$$$$
>  <Molecule>
CCCCCCCC/C=C\CCCCCCCCCC(=O)O[C@H](COC(=O)CCCCCCCCCCC)COP(=O)(O)O[C@H]1C(O)C(O)C(O)[C@@H](O)C1O (some centres not stated)

>  <Measure unit>
Å²

>  <collision cross section (N2)>
284.6

$$$$
>  <Molecule>
CC/C=C\C/C=C\C/C=C\CCCCCCCC(=O)O[C@H](COC(=O)CCCCCCCCC/C=C\CCCCCCCC)COP(=O)(O)OC[C@@H](O)CO

>  <Measure unit>
Å²

>  <collision cross section (N2)>
285.6

$$$$
>  <Molecule>
CCCCC/C=C\C/C=C\C/C=C\CCCCCCC(=O)O[C@H](COC(=O)CCCCCCC/C=C\CCCCCCCC)COP(=O)(O)OC[C@H](N)C(=O)O

>  <Measure unit>
Å²

>  <collision cross section (N2)>
291.4

$$$$
>  <Molecule>
CCCC/C=C\CCCCCCCC(=O)OC[C@H](COP(=O)(O)O[C@H]1C(O)C(O)C(O)[C@@H](O)C1O)OC(=O)CCCCCCC/C=C\CCCCCCCC (some centres not stated)

>  <Measure unit>
Å²

>  <collision cross section (N2)>
282.9

$$$$
>  <Molecule>
CCCCCCCC/C=C\CCCCCCCCCC(=O)O[C@H](COC(=O)CCCCCCCCCCC)COP(=O)(O)OC[C@@H](O)CO [PG(32:1)]

>  <Measure unit>
Å²

>  <collision cross section (N2)>
270.4

$$$$
>  <Molecule>
CCCCC/C=C\C/C=C\CCCCCCCC(=O)O[C@H](COC(=O)CCCCCCCCCCC)COP(=O)(O)O[C@H]1C(O)C(O)C(O)[C@@H](O)C1O (some centres not stated)

>  <Measure unit>
Å²

>  <collision cross section (N2)>
283.6

$$$$
>  <Molecule>
CCCCCCCCCC/C=C\CCCCCCCCCC(=O)O[C@H](COC(=O)CCCCCCCCCCC)COP(=O)(O)O

>  <Measure unit>
Å²

>  <collision cross section (N2)>
259.2

$$$$
>  <Molecule>
CCCCCCCCCCCCCCCC(=O)O[C@H](CO)COP(=O)(O)O

>  <Measure unit>
Å²

>  <collision cross section (N2)>
194.5

$$$$

###

Run conditions: [M-H]-; instrument: TW; calibrated with phosphatidylcholines (ESI+) and phosphatidylethanolamines (ESI-)

>  <Compound>
CCCC/C=C\CCCCCCCC(=O)O[C@H](COC(=O)CCCCCCCCCCCCC)COP(=O)(O)OC[C@@H](O)CO [PG(28:1)]

>  <collision cross section (N2)>
251.2 Å²

$$$$
>  <Compound>
CCCC/C=C\CCCCCCCC(=O)O[C@H](CO/C=C\CCCCCCCCCCCCC)COP(=O)(O)OC[C@@H](O)CO [PG(p29:1)]

>  <collision cross section (N2)>
252.2 Å²

$$$$
>  <Compound>
CCCCCCCCCC/C=C\CCCCCCCCCC(=O)O[C@H](COC(=O)CCCCCCCCCCC)COP(=O)(O)OC[C@@H](O)CO [PG(34:1)]

>  <collision cross section (N2)>
269.9 Å²

$$$$
>  <Compound>
CCCC/C=C\CCCCCCCC(=O)O[C@H](CO/C=C\CCCCCCCCCCCCCC)COP(=O)(O)OC[C@@H](O)CO [PG(p30:1)]

>  <collision cross section (N2)>
255.3 Å²

$$$$
>  <Compound>
CCCCCCCCCC/C=C\CCCCCCCCCC(=O)O[C@H](COC(=O)CCCCCCCCCCC)COP(=O)(O)O [PA(16:0/18:1)]

>  <collision cross section (N2)>
256.3 Å²

$$$$
>  <Compound>
CCCCCCCCCCCCCCCCCCCCC(=O)OC[C@H](COP(=O)(O)OC[C@@H](O)CO)OC(=O)CCCCCCCCCCCCCC [PG(36:0)]

>  <collision cross section (N2)>
277.9 Å²

$$$$
>  <Compound>
CCCC/C=C\CCCCCCCC(=O)O[C@H](CO/C=C\CCCCCCCCCCCCCCCC)COP(=O)(O)OC[C@@H](O)CO [PG(p32:1)]

>  <collision cross section (N2)>
262.1 Å²

$$$$
